These measurements were taken from patent EP0348560A1.

Below: a set of entries, each annotated with reported Inhibiting rate of dental plaque formation (%).
Test system: Streptococcus mutans (strain 6715)
Assay: Incubation Adhesion Method: inhibition of dental plaque formation
Format: cell-based
Conditions: 125 µg/mℓ sample combined with α-bisabolol 4 µg/mℓ; BHI medium with 1% sucrose, 37°C, 16 hours, anaerobic
Unit % implied. Number only.

I have this molecule here, CC1CCC(C(C)C)C(O)C1 (stereo not drawn) , and I need its recorded Inhibiting rate of dental plaque formation (%).
98.4

* * *

Readings of Amount of dental plaque formation (O.D., 550nm) for the listed molecules
System: Streptococcus mutans (strain 6715)
Test: Incubation Adhesion Method: inhibition of dental plaque formation
Type: cell-based
Settings: 125 µg/mℓ sample alone, content of α-bisabolol 0 µg/mℓ; BHI medium with 1% sucrose, 37°C, 16 hours, anaerobic
The response must be a number in O.D. with no trailing unit.

C=CCc1ccc(O)c(OC)c1 [Eugenol, eugenol]: 0.62
CC12CCC(CC1)C(C)(C)O2 [Cineol, cineol, reference compound]: 0.62
COC(=O)c1ccccc1O [Methyl salicylate, methyl salicylate, reference compound]: 0.61
CCCCCC(O)CC (stereo not drawn) [3-Octanol, 3-octanol]: 0.59
C=C(C)C1CC=C(C)C(=O)C1 (stereo not drawn) [Carvone, carvone, reference compound]: 0.62

Let's switch to this molecule now.
What does the record list as Amount of dental plaque formation (O.D., 550nm) for CC1CCC(C(C)C)C(O)C1 (stereo not drawn) [Menthol, menthol] ?
0.60

* * *

Reported Inhibiting rate of dental plaque formation (%) values are given for each entry in this list.
Tested on: Streptococcus mutans (strain 6715)
Assay: Incubation Adhesion Method: inhibition of dental plaque formation
Type: cell-based
Conditions: 125 µg/mℓ sample combined with α-bisabolol 4 µg/mℓ; BHI medium with 1% sucrose, 37°C, 16 hours, anaerobic
Remember to put the unit after the number in your answer.

Examples with answers:
C=C(C)C1CC=C(C)C(=O)C1 (centres unmarked) [Carvone, carvone, reference compound]: 3.2%
CC12CCC(CC1)C(C)(C)O2 [Cineol, cineol, reference compound]: 4.8%
COC(=O)c1ccccc1O [Methyl salicylate, methyl salicylate, reference compound]: 1.6%
C=CCc1ccc(O)c(OC)c1: 3.2%

Here is the next item to consider.
Field request: Inhibiting rate of dental plaque formation (%) | item: CCCCCC(O)CC (centres unmarked)
6.5%
